# protocolDescription: Serum D-Ribose levels and half life after infusion or oral administration
# Type: in vivo, human
# condition: human, serum; assumed from the above oral pharmacokinetic information
metricName: half-life (min)
Response body: numeric value in min, unit text excluded.

Incoming: Record request: half-life value, item O=C[C@H](O)[C@H](O)[C@H](O)CO [D-Ribose]
Outgoing: 15
